Data origin, for the record: patent US20150118215A1

assayedTarget: cytohesin-2 (Homo sapiens, UniProt Q99418)
Construct: steady-state enzymatic GEF-activity analysis of full-length cytohesin-2 or Sec7 domain with Arf1 and Arf6; made in house; host or cells: E. coli BL21DE3
Sequence (Q99418 whole entry, the tested form may be a part): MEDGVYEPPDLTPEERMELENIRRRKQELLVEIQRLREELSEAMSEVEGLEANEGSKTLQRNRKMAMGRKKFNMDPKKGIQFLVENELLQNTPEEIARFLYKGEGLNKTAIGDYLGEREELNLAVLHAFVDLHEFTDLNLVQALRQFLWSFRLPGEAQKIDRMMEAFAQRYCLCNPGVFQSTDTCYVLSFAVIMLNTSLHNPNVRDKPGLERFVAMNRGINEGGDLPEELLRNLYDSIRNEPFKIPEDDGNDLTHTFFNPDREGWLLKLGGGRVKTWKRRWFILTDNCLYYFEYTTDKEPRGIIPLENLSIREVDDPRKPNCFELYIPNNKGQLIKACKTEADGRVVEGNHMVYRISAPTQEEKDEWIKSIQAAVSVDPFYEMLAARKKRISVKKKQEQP
protocolDescription: Radiolabel-based GEF-activity assay ([35S]-GTPγS binding) of full-length cytohesin-2 with myr-Arf1 or myr-Arf6
Format: biochemical
conditionsUsed: myr-Arf6 as substrate; PIP2-containing liposomes; read-out: IC50, inhibition of enzymatic GEF-activity of cytohesin-2 with myr-Arf6
pIC50: −log10 of the molar value.
testReadout: pIC50

Prompt line: Field request: pIC50 | item: `COc1nc(-c2ccc3c(c2)OCO3)n(-c2ccc(NC(=O)CSc3ccccc3)cc2)n1`
Response line: < 3.82
